# experiment: Metabolic stability in human liver microsomes
# Format: in vitro ADME
# experimental conditions: human liver microsomes 0.5 mg/mL, scaled
# Description: Metabolic stability of compounds is assessed at […] with human, rat, mouse, dog, and monkey liver microsomes (0.5 mg/mL). Compound and protein are equilibrated at 37° C. for 5 min prior to reaction initiation with co-factor NADPH. […] After quenching and centrifugation, supernatants were analyzed by LC-MS with methods specific to compounds tested.
measured metric: CLint scaled (mL/min/kg)
Number only, in mL/min/kg; omit the unit.

Request: Entry under review: CCN1CCC(COc2ccc(Nc3ncc(F)c(-c4cc(F)c5nc6n(c5c4)C(C)(C)CC6)n3)nc2)CC1 . Reported CLint scaled?
Response: 21.7
